B1: Azoarcus group I ribozyme (parent)
chain: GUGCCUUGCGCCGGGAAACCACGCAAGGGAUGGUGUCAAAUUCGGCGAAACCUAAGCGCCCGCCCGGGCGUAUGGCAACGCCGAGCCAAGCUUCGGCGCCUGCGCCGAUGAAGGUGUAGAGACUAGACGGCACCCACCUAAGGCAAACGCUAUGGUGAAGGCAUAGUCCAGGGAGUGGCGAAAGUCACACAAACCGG

- Variants of: B1
- protocol.description: reverse-splicing fitness (ratio to wild type); higher = more active; in vitro selection; Mg2+ level not given

mutation.label: C82U A111U A145C C150U C169U
reverse-splicing fitness: 0.0089
--
mutation.label: C82G A111C A120U A145U C150U U176G
reverse-splicing fitness: 0.00386
--
mutation.label: C82U A111G A120U A145C C150A C169U U176G
reverse-splicing fitness: 0.00196
--
mutation.label: C82A A111G A120C A145G C150G
reverse-splicing fitness: 0.0105
--
mutation.label: A111C A120G A145C C150G C169A
reverse-splicing fitness: 0.015
--
mutation.label: C82A A111U A120G A145C C150A C169G U176C
reverse-splicing fitness: 0.0151
--
mutation.label: C82G A111U A145G C169U U176G
reverse-splicing fitness: 0.00532
--
mutation.label: A111G A120C A145U C150U C169U U176G
reverse-splicing fitness: 0.00606
--
mutation.label: A111C
reverse-splicing fitness: 0.872
--
mutation.label: A111U A120G A145G C169U U176G
reverse-splicing fitness: 0.00601
--
mutation.label: C82U A111C A120G A145U C150U C169A U176C
reverse-splicing fitness: 0.00758
